Data credit: patent US20120264735A1

testSystem: c-Met kinase (recombinant c-Met) (Homo sapiens)
Construct: 0.27 nM recombinant c-Met
Sequence (P08581 25-1390): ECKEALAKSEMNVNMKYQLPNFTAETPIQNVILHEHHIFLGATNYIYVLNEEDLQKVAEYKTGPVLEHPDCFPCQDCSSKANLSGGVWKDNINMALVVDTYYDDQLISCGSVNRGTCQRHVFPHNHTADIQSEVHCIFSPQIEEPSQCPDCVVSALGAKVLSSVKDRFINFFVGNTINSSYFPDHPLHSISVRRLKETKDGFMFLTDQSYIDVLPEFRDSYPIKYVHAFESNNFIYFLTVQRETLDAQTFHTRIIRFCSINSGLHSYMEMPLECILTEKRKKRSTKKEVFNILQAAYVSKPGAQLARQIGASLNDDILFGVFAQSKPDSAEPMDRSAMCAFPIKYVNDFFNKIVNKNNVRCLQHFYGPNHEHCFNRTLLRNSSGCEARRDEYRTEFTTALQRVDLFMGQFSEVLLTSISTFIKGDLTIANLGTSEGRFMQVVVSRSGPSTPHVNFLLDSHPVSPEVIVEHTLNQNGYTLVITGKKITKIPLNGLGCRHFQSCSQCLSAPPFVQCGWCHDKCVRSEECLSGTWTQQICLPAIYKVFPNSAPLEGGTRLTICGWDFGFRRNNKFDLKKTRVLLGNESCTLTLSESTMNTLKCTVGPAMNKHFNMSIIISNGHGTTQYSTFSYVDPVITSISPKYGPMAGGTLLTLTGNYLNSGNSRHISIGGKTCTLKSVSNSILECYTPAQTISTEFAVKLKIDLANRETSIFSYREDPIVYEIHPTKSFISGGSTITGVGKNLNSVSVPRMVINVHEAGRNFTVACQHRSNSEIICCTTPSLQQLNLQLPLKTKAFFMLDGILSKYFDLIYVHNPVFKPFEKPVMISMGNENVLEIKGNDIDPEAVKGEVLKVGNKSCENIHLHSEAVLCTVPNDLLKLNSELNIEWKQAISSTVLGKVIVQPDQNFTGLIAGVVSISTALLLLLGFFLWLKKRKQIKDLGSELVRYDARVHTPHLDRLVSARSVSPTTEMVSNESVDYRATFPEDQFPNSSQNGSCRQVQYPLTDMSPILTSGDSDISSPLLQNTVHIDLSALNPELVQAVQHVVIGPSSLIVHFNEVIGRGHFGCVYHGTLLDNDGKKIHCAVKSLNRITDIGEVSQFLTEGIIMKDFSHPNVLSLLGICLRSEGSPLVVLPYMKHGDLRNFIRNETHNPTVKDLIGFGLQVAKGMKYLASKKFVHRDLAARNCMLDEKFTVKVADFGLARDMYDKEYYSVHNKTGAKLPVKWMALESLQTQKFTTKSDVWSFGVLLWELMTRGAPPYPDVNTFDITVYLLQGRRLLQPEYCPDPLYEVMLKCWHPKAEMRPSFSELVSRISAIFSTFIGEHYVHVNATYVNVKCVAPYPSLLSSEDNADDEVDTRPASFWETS
measurementNotes: In vitro kinase assay I (homogeneous time-resolved fluorescence tyrosine kinase assay)
Readings of IC50 for the listed compounds
measuredAttribute: IC50

[[record]]
compound = "O=c1ccn(-c2ccc(F)c(F)c2)nc1Cc1cccc(-c2ncc(OC3CCOC3)cn2)c1 (single isomer, unassigned) [Example 349]"
measuredattribute = "IC50"
reportedmeasurement = "< 0.1 µM"

[[record]]
compound = "CCOC(=O)Nc1cccc(Cc2nn(-c3cccc(OC)c3)ccc2=O)c1"
measuredattribute = "IC50"
reportedmeasurement = "0.1 to 1 µM"

[[record]]
compound = "Cn1cc(-n2ccc(=O)c(Cc3cccc(-c4ncc(OCC5CC5)cn4)c3)n2)cn1"
measuredattribute = "IC50"
reportedmeasurement = "< 0.1 µM"

[[record]]
compound = "CCCn1cnc(-c2cccc(C(C)c3nn(-c4cnn(CC)c4)ccc3=O)c2)n1 (single isomer, unassigned) [Example 689]"
measuredattribute = "IC50"
reportedmeasurement = "< 0.1 µM"

